Data origin, for the record: patent US20040038855A1

target: human α1D adrenergic receptor (Homo sapiens, UniProt P25100); construct: expressed in transfected cells; assay: Binding affinity at the human α1D adrenergic receptor; details: Table 3d; read-out: hα1D Ki
Sequence (P25100 whole entry): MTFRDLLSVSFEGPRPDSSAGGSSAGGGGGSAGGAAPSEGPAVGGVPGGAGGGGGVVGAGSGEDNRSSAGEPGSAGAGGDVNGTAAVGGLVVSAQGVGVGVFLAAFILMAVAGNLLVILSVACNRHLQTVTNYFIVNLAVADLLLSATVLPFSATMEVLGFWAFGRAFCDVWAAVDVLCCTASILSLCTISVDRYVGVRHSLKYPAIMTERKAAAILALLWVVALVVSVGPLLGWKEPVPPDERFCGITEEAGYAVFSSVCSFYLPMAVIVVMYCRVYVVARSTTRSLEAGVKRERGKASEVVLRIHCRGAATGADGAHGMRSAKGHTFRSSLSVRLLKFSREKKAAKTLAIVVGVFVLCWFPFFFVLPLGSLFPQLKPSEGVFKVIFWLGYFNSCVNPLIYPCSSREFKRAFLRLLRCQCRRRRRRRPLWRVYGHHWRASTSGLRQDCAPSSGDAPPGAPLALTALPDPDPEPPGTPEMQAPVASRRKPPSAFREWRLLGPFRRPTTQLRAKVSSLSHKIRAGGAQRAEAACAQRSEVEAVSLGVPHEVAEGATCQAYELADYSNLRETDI
pKi: −log10 of the molar value.
endpoint: pKi

[[record]]
substance = "2-(3,4-DIFLUOROPHENYL)4,5-DIHYDROIMIDAZOLE-1-CARBOXYLIC ACID {3-[4-PHENYL-4-(4-BROMO-5-METHYLTHIOPNEN-2-YL)]-PROPYL}-AMIDE [Example 19]"
targetundertest = "human α1D adrenergic receptor (Homo sapiens, UniProt P25100)"
endpoint = "pKi"
value = 6.29


====

Entries below carry reported Ki on rat D3 receptor (Rattus norvegicus).
Sequence (P19020 whole entry): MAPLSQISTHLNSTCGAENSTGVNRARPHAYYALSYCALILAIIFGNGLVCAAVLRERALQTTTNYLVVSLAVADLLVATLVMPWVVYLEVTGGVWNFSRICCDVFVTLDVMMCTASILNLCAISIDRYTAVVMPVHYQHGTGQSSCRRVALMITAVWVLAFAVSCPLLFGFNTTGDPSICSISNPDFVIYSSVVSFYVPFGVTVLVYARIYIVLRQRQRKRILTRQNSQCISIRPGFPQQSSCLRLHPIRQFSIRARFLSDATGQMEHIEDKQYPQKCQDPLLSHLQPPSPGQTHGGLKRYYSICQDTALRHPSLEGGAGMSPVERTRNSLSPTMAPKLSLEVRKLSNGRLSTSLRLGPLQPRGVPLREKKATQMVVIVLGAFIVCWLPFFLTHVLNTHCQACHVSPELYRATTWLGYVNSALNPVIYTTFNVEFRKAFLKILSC
Structures can show the parent of a compound that is named as a salt.
endpoint: Ki

[[record]]
molecule = "COCC1=C(C(=O)OC)[C@H](c2ccc(F)c(F)c2)N(C(=O)NCCCN2CCC(c3cccc(NC(C)=O)c3)CC2)C(=O)N1 [Example 10]"
value = "5.89 µM"

[[record]]
molecule = "COC(=O)C1=C(C)NC(=O)N(C(=O)NCCCN2CCC3(CC2)OCc2ccccc23)C1c1ccc2nonc2c1 (single isomer, unassigned) [Example 18, HYDROCHLORIDE]"
value = "1.22 µM"


====

target: human Histamine H1 receptor (Homo sapiens, UniProt P35367); construct: expressed in transfected cells; test: Binding affinity at the human histamine H1 receptor; conditions: Table 3c; read-out: hH1 Ki
Sequence (P35367 whole entry): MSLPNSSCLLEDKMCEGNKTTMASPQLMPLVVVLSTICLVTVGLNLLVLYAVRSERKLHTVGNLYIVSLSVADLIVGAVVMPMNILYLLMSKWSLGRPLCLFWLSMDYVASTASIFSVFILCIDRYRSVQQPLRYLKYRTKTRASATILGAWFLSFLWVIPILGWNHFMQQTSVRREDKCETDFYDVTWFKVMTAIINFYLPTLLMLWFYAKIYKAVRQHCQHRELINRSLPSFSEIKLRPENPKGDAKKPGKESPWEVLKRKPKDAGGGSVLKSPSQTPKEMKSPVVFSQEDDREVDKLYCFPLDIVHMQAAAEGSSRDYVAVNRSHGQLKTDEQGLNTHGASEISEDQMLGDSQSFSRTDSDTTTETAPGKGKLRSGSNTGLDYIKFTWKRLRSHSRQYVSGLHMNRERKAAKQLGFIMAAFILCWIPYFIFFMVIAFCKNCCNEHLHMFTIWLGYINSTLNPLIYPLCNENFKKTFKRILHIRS
endpoint: Ki (µM)

[[record]]
molecule = "CC(=O)Nc1cccc(C2CCN(CCCNC(=O)N3C(=O)OC(C)(C)C3c3ccc(F)c(F)c3)CC2)c1 (stereo not drawn) [Example 130]"
endpoint = "Ki"
value = 1.86

[[record]]
molecule = "CC(=O)Nc1cccc(C2CCN(CCCNC(=O)N3C(=O)NC(C)=C(C(C)=O)C3c3cc(F)c(F)c(F)c3)CC2)c1 (stereo not drawn) [Example 51]"
endpoint = "Ki"
value = 1.23

[[record]]
molecule = "COCC1=C(C(=O)OC)[C@H](c2ccc(F)c(F)c2)N(C(=O)NCCCN2CCC(c3cccc(NC(=O)CC(C)(C)C)c3)CC2)C(=O)N1 [Example 40]"
endpoint = "Ki"
value = 7.12


====

target: human MCH1 receptor (Homo sapiens); assay: Competition binding, membrane preparations of A293 cells expressing the human MCH1 receptor, [3H] Compound 10 as radioligand; set-up: expressed in transfected cells; conditions: read-out: hMCH1 Ki; Table 3e
Sequence (Q99705 whole entry): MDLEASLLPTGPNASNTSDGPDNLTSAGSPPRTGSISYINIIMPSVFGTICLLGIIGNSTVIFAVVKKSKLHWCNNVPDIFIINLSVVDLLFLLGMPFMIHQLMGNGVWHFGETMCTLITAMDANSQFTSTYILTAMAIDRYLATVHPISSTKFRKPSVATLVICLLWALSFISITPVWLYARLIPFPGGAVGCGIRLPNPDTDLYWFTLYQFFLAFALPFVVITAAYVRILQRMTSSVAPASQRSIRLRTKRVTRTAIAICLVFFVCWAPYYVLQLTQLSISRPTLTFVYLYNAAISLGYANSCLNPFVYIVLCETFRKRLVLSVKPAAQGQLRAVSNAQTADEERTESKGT
endpoint: Ki

[[record]]
compound = "COC(=O)C1=C(C)NC(=O)N(C(=O)NCCCN2CCC3(CC2)OCc2ccccc23)C1c1ccc(F)c(F)c1 (stereo not shown)"
value = "6 nM"


====

biological target: human Dopamine D2 receptor (Homo sapiens); construct: purchased BioSignal, Inc. (Montreal, Canada); experiment: Binding affinity at the human dopamine D2 receptor; settings: Table 3c; read-out: hD2 Ki
Sequence (P14416 whole entry): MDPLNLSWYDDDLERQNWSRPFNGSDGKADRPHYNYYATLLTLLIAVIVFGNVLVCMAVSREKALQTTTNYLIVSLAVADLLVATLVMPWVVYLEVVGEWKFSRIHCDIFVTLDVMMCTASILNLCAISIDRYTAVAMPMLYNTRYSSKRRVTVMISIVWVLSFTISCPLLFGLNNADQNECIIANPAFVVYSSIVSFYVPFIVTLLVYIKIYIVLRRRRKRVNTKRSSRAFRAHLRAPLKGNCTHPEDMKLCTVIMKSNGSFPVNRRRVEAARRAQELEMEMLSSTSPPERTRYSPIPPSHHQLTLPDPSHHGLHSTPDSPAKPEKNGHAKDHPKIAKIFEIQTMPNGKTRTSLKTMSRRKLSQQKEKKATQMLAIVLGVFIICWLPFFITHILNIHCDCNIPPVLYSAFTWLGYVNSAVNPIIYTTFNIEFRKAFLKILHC
pKi: −log10 of the molar value.
Listed below: pKi values for each entry.
endpoint: pKi

[[record]]
molecule = "CC(C)C(=O)Nc1cccc(C2CCN(CC[C@@H](O)c3ccccc3)CC2)c1 [Example 113]"
targetundertest = "human Dopamine D2 receptor (Homo sapiens)"
value = 4.38

[[record]]
molecule = "Cc1ccc(C(=O)CCCN2CCC(c3cccc(NC(=O)C(C)C)c3)CC2)cc1C [Example 58]"
targetundertest = "human Dopamine D2 receptor (Homo sapiens)"
value = 5.55

[[record]]
molecule = "CC(C)C(=O)Nc1cccc(C2CCN(CC[C@H](Oc3ccc(C(F)(F)F)cc3)c3ccccc3)CC2)c1 [Example 109]"
targetundertest = "human Dopamine D2 receptor (Homo sapiens)"
value = 6.72

[[record]]
molecule = "CC(=O)Nc1cccc(C2CCN(CCCC(=O)c3ccc(Cl)cc3)CC2)c1 [Example 65]"
targetundertest = "human Dopamine D2 receptor (Homo sapiens)"
value = 5.84

